- measurement_target: T1, His6Gal80, P04387
- T1 chain: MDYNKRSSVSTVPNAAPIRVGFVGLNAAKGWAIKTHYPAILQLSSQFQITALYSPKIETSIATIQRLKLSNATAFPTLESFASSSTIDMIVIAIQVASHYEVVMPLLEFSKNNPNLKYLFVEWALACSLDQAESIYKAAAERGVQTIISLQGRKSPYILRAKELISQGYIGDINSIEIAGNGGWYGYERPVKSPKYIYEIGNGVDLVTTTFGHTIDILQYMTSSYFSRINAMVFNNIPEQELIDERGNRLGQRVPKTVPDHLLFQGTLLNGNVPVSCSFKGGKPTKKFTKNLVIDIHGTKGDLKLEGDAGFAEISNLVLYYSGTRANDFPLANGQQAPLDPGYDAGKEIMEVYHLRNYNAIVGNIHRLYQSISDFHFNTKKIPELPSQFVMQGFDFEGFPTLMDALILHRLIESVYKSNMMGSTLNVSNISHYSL
- experiment_summary: capture of dilute Gal80 by TentaGel-Gal80bp, Western blot against a calibration blot
pKd: −log10 of the molar value.
property_label: pKd

Exercise: Which pKd is listed for YDQDMQNNTFDDLFWKEGHR (modifications not checked) [Gal80bp] ?
Solution: > 9.40
